Consider the following compounds; for each one, report its Type I collagenase biosynthesis (%), UV-A irradiated group.
# Tested on: Type I Collagenase (MMP-1)
# Measurement notes: Inhibition of type I collagenase (MMP-1) biosynthesis after UV-A irradiation, test substances (ELISA)
# Type: cell-based
# Details: new born human fibroblasts, UV-A 15 J/cm^2, 10 μM or 10 ppm; UV negative control = 100
Lab book: enter the figure in %, no units written.

Challenge: Indicate the recorded Type I collagenase biosynthesis (%), UV-A irradiated group value for this compound: Cn1c(=O)c2[nH]cnc2n(C)c1=O [Theophylline, reference compound]
Response given: 40

Challenge: Please look at this compound and report its Type I collagenase biosynthesis (%), UV-A irradiated group: O=C(O[C@@H]1Cc2c(O)cc(O)cc2O[C@H]1c1ccc(O)c(O)c1)c1cc(O)c(O)c(O)c1 [CG, catechin gallate]
Response given: 53

Challenge: For the compound O=c1c(O)c(-c2ccc(O)c(O)c2)oc2cc(O)cc(O)c12 [Quercetin, quercetin] , give its measured Type I collagenase biosynthesis (%), UV-A irradiated group value.
Response given: 35

Challenge: Quickly give me recorded Type I collagenase biosynthesis (%), UV-A irradiated group for Oc1cc(O)c2c(c1)O[C@H](c1ccc(O)c(O)c1)[C@@H](O)C2 [(+) C, (+)catechin]
Response given: 45

Challenge: Report measured Type I collagenase biosynthesis (%), UV-A irradiated group; entry is CCNC(=O)CC[C@H](N)C(=O)O [Theanine]
Response given: 60

Challenge: Using the record for Cn1cnc2c1c(=O)[nH]c(=O)n2C [Theobromine] , state its measured Type I collagenase biosynthesis (%), UV-A irradiated group.
Response given: 32

Challenge: Indicate its recorded Type I collagenase biosynthesis (%), UV-A irradiated group; the compound in question is O=c1c(O)c(-c2cc(O)c(O)c(O)c2)oc2cc(O)cc(O)c12 [Myricetin, myricetin]
Response given: 52

Challenge: Look up Type I collagenase biosynthesis (%), UV-A irradiated group of O=C(O[C@@H]1Cc2c(O)cc(O)cc2O[C@@H]1c1ccc(O)c(O)c1)c1cc(O)c(O)c(O)c1 [(−) ECG, epicatechin gallate] and report it.
Response given: 45

Challenge: Supply recorded Type I collagenase biosynthesis (%), UV-A irradiated group for Cn1c(=O)c2c(ncn2C)n(C)c1=O [Caffeine, reference compound] here.
Response given: 58

Challenge: Identify measured Type I collagenase biosynthesis (%), UV-A irradiated group associated with O=C(O[C@@H]1Cc2c(O)cc(O)cc2O[C@@H]1c1cc(O)c(O)c(O)c1)c1cc(O)c(O)c(O)c1 [EGCG, epigallocatechin gallate]
Response given: 42

Challenge: Name the recorded Type I collagenase biosynthesis (%), UV-A irradiated group of the item O=C(O)[C@]1(O)C[C@@H](O)[C@@H](O)[C@H](O)C1 [Quinic acid] in your answer.
Response given: 75

Challenge: Supply measured Type I collagenase biosynthesis (%), UV-A irradiated group of CC1=C(/C=C/C(C)=C/C=C/C(C)=C/C(=O)O)C(C)(C)CCC1 [RA, retinoic acid, reference compound] in your reply.
Response given: 48

Challenge: Given the compound O=C(O)c1cc(O)c(O)c(O)c1 [Gallic acid] , write its reported Type I collagenase biosynthesis (%), UV-A irradiated group.
Response given: 52

Challenge: Fill in reported Type I collagenase biosynthesis (%), UV-A irradiated group for this entry: O=C(O[C@@H]1Cc2c(O)cc(O)cc2O[C@H]1c1cc(O)c(O)c(O)c1)c1cc(O)c(O)c(O)c1 [GCG, gallocatechin gallate]
Response given: 43

Challenge: Specify Type I collagenase biosynthesis (%), UV-A irradiated group for Cc1cccc(Nc2cc(Cl)nc(SCC(=O)O)n2)c1C [Wy14643, Wy-14,643, reference compound] and stop.
Response given: 60

Challenge: In one line, give reported Type I collagenase biosynthesis (%), UV-A irradiated group of the entry O=c1c(O)c(-c2ccc(O)cc2)oc2cc(O)cc(O)c12 [Kaempferol, kaempferol] .
Response given: 48

The reported numbers originate from patent US10092493B2.
